Test: NCI Yeast Anticancer Drug Screen. Data for the bub3 strain (AID 167)
Settings: S. cerevisiae bub3 mutant strain, at 50.0 µM, active compounds read high
This is part of a sample that, as a whole, favours compounds with a hit. Of some 79,000 tested, about 15% had one in any assay.
The following molecules are listed with their measured growth inhibition values.
Response body: numeric value in %, unit text excluded.

Examples with answers:
// recorded growth inhibition for c1ccc(-c2nc3n(n2)CCC(c2ccccc2)S3)cc1 (configuration not stated) : 6.1

// recorded growth inhibition for "CC(C)(C)NC(=O)Oc1cccnc1" : 27.6

# evaluate next
// recorded growth inhibition for "O=C(S)C(=O)Cc1cn[nH]n1" : -7.25

* * *

Experiment: NCI Yeast Anticancer Drug Screen. Data for the mec2-1 strain (AID 157)
Conditions: S. cerevisiae mec2-1 strain, at 50.0 µM, active compounds read high
The panel holds about 79,000 compounds, 15% with a hit somewhere; the sample as a whole holds those more often. Activity calls are given as the source filed them. Rule as the data show it: active = growth inhibition above about 70%; inactive = the rest.
The following compounds are listed with their measured growth inhibition values.

Examples with answers:
// recorded growth inhibition for "O=S(=O)(c1ccc(Br)cc1)N1CCN(S(=O)(=O)c2ccc(Br)cc2)CC1" : -23.9% (inactive)

// recorded growth inhibition for COC(=O)CC1(O)C=CCCC1c1ccccc1 (stereo unspecified) : -7.6% (inactive)

// recorded growth inhibition for "CCN(CC)c1cc2c3c(c1)CCCN3CCC2" : -27.9% (inactive)

Further cases:
// recorded growth inhibition for "CN(C)c1ccc(/C=c2\[nH]c(=O)/c(=C\c3ccc(N(C)C)cc3)[nH]c2=O)cc1" : 4.6% (inactive)

// recorded growth inhibition for Cc1nn(C(=O)c2ccc(Cl)cc2)c2c1C(c1ccc(Cl)cc1)SC(N)=N2 (stereo unspecified) : -21.2% (inactive)

// recorded growth inhibition for COc1ccc(C2CC(c3cc(C)ccc3O)=NC(N)=N2)cc1 (stereo unspecified) : 12.8% (inactive)

* * *

The following molecules are listed with their measured growth inhibition values.
Test: NCI Yeast Anticancer Drug Screen. Data for the cln2 rad14 strain (AID 165);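 also: 0% = growth equal to vehicle treated cultures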
Conditions: S. cerevisiae cln2 rad14 strain, at 50.0 µM, active compounds read high
This is part of a sample that, as a whole, favours compounds with a hit. Of some 79,000 tested, about 15% had one in any assay.
Response body: numeric value in %, unit text excluded.

// recorded growth inhibition for "Cc1ncc(CO)c(Cc2ccc(N(C)C)cc2)c1O" : -2.25

// recorded growth inhibition for "CCN(CC)CCN1C(=O)C(=O)N(c2cccc3ccccc23)C1=O" : -14.2

// recorded growth inhibition for "CCOC(=O)CSC(=O)NCCCl" : 8.45

// recorded growth inhibition for O=C(O)C(O)C(O)C(O)C(O)C(=O)O.[NH-]C1CCCCC1[NH-].[Pt+2] (configuration not stated) : 12.9

// recorded growth inhibition for "CC(C)C/C(=N\NC(N)=O)C1=CCCCC1" : -40.5

// recorded growth inhibition for "COC1=CC(=O)C=C(OC)C1=O" : 6.25

// recorded growth inhibition for "CCCn1cnc2c(NN=O)ncnc21" : -23.2

// recorded growth inhibition for CP(=O)(c1ccccc1)c1ccccc1OCCCOCCCOc1ccccc1P(C)(=O)c1ccccc1 (configuration not stated) : 8.1

Further cases:
// recorded growth inhibition for "NS(=O)(=O)c1ccc(Nc2c3ccccc3nc3ncccc23)cc1" : -11.8

// recorded growth inhibition for "O=[N+]([O-])c1ccc(-c2nnn(C3CC3)c2N2CCCCC2)cc1" : -0.5

// recorded growth inhibition for "O=C(Nc1cccc2ccccc12)OCC1CC1" : -6.2

// recorded growth inhibition for "N#Cc1ccc(CC(O)(c2ccccc2)c2ccccc2)cc1" : -12.6
